# key: entry, value: pKi
Tested on: σ1-receptor (Cavia porcellus)
Sequence (Q60492 whole entry): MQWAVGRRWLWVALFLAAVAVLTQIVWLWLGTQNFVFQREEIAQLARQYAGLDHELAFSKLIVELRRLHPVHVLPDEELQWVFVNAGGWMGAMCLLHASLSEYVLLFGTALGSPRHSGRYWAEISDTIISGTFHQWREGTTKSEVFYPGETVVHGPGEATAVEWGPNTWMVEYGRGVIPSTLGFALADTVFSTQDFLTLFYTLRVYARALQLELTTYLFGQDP
Here pKi is given on a logarithmic scale as minus log10 of the concentration in mol/L.

Example entries and their recorded answers appear below.
{"Compound": "c1ccc(-n2ncc3c2CCOC3CCN2CCCCC2)cc1 (stereo not shown)", "Tested on": "σ1-receptor (Cavia porcellus)", "Reported property": "pKi", "Endpoint value": 8.53}
{"Compound": "CN(C)CC1OCCc2c1cnn2-c1ccccc1 (stereo not shown)", "Tested on": "σ1-receptor (Cavia porcellus)", "Reported property": "pKi", "Endpoint value": 5.86}
{"Compound": "c1ccc(-n2ncc3c2CCOC3CN2CCCCC2)cc1 (stereo not shown)", "Tested on": "σ1-receptor (Cavia porcellus)", "Reported property": "pKi", "Endpoint value": 7.98}

Turning now to a further compound:
Field pKi (entry c1ccc(C2CCN(CC3OCCc4c3cnn4-c3ccccc3)CC2)cc1 (stereo not shown) ) reads 8.80
